Assay Target: UniProt Q9UNQ0
Sequence (Q9UNQ0 whole entry): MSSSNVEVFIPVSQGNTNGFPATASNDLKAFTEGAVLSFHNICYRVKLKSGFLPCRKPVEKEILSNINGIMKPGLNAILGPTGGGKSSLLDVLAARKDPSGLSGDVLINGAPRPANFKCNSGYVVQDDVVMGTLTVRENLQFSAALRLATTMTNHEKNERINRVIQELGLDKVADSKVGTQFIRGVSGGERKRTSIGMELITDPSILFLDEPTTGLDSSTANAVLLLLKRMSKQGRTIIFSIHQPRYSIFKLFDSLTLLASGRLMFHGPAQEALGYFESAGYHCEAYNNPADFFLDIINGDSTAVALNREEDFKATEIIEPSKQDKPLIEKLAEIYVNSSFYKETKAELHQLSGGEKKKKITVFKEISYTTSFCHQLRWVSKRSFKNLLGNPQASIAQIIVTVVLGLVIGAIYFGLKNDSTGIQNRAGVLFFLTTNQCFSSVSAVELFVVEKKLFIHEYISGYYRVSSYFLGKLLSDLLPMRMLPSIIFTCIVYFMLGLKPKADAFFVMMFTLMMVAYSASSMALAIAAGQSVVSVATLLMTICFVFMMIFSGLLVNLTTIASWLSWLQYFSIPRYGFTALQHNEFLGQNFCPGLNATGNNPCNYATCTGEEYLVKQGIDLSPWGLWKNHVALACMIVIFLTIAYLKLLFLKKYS
Assay Comment: Inhibition of BCRP (unknown origin)
Measure: pIC50
Keep it numeric: pIC50 is minus log10 of the concentration in mol/L.

Dear colleague, please send me the reported pIC50 for `N#Cc1cn(Cc2ccccc2)c2c(NCCCc3ccccc3)ncnc12` when you can.
4.69

Dear colleague, please send me the reported pIC50 for `N#Cc1c2n(c3c(N4CCN(CCc5c[nH]c6ccccc56)CC4)ncnc13)CCCC2` when you can.
5.47

---

Assay Target: P-gp (ABCB1) (Homo sapiens)
Sequence (P08183 whole entry): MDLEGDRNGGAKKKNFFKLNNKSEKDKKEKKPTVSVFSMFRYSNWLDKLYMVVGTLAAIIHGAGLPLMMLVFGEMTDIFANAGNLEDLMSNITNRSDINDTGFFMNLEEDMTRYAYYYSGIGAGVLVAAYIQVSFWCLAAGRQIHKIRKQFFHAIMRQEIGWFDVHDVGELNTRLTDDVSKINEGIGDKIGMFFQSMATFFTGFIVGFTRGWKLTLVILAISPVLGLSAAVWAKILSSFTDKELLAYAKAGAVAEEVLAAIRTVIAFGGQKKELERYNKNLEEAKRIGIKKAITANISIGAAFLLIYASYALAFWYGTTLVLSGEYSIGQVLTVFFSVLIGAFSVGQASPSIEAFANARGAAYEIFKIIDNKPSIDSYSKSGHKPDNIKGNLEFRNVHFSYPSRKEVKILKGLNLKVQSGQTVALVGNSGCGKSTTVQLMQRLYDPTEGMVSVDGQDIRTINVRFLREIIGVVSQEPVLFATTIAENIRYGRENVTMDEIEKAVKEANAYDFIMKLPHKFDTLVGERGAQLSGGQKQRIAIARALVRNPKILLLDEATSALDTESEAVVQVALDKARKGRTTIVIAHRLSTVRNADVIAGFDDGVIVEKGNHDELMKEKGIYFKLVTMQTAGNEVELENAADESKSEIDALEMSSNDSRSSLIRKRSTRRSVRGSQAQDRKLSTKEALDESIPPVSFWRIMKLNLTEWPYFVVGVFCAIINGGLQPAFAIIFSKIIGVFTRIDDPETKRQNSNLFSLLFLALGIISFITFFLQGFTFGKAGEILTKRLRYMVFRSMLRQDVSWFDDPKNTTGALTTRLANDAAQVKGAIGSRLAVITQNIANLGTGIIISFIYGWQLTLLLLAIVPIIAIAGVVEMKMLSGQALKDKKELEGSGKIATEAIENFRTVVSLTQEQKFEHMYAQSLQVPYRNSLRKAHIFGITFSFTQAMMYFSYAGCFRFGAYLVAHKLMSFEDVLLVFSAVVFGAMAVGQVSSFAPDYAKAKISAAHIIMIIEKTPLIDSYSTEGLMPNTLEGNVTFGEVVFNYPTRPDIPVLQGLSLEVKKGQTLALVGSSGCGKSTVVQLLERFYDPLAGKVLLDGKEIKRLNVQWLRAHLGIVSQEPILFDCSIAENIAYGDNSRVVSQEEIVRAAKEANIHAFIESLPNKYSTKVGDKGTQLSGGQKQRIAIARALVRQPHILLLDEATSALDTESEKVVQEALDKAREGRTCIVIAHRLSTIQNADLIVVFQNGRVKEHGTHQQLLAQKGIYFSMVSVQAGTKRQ
Assay Comment: Inhibition of P-gp (unknown origin) expressed in dog MDCK-MDR1cells assessed as maximum inhibition by calcein AM accumulation assay relative to control
Assay type: cell-based
Protocol Conditions: MDCK-MDR1 cells, probe calcein AM, read-out: Imax
Measure: Emax

Dear colleague, please send me the reported Emax for `c1ccc(CCN2CCN(c3ncnc4c3[nH]c3ccccc34)CC2)cc1` when you can.
26%

Data provenance is ChEMBL document CHEMBL5260824.
